The entries below come with measured pIC50 values attached.
- System: Jurkat
- Procedure summary: Antiproliferative activity against human Jurkat cells after 72 hrs by (3-(4,5-dimethylthiazol-2-yl)-2,5-diphenyltetrazolium bromide test
- Format: functional, cell-based
Keep it numeric: pIC50 is minus log10 of the concentration in mol/L.

Exercise: Entry CCOC(=O)c1oc2c(OC)cccc2c1Nc1cc(OC)c(OC)c(OC)c1 : reported pIC50 = ?
Key: 6.54

Exercise: Entry CCOC(=O)c1oc2cc(OC)ccc2c1Nc1cc(OC)c(OC)c(OC)c1 : reported pIC50 = ?
Key: 7.66

Exercise: Entry COC(=O)c1oc2cc(OC)ccc2c1Nc1cc(OC)c(OC)c(OC)c1 : reported pIC50 = ?
Key: 8.10

Exercise: Entry COC(=O)c1oc2ccccc2c1Nc1cc(OC)c(OC)c(OC)c1 : reported pIC50 = ?
Key: 5.39

====

The entries below come with measured pIC50 values attached.
- Test system: PBL
- Procedure summary: Cytotoxicity against human resting PBL cells after 72 hrs by MTT assay
- Assay type: cell-based
pIC50: −log10 of the molar value.

Exercise: Entry COC(=O)c1oc2cc(OC)ccc2c1Nc1cc(OC)c(OC)c(OC)c1 : reported pIC50 = ?
Key: < 5.00

# evaluate next
Exercise: Entry CCOC(=O)c1oc2cc(OC)ccc2c1Nc1cc(OC)c(OC)c(OC)c1 : reported pIC50 = ?
Key: < 5.00

====

- Target or test system: Tubulin (Bos taurus, UniProt Q6B856+Q862L2+Q862F3)
- Procedure summary: Inhibition of bovine brain tubulin assembly after 20 mins incubation by spectrophotometric analysis
Result type: IC50 (µM)
// return numeric value only (unit: µM, not printed)

# annotated cases, reported IC50 shown
Exercise: Entry COC(=O)c1oc2ccc(OC)cc2c1Nc1cc(OC)c(OC)c(OC)c1 : reported IC50 = ?
Key: 7.5

Exercise: Entry COC(=O)c1oc2cc(OC)ccc2c1Nc1cc(OC)c(OC)c(OC)c1 : reported IC50 = ?
Key: 1.1

Exercise: Entry COC(=O)c1oc2c(OC)cccc2c1Nc1cc(OC)c(OC)c(OC)c1 : reported IC50 = ?
Key: 7.6

Exercise: Entry CCOC(=O)c1oc2c(OC)cccc2c1Nc1cc(OC)c(OC)c(OC)c1 : reported IC50 = ?
Key: 6.4

# evaluate next
Exercise: Entry CCOC(=O)c1oc2cc(OC)ccc2c1Nc1cc(OC)c(OC)c(OC)c1 : reported IC50 = ?
Key: 1.5

====

The entries below come with measured IC50 values attached.
- Procedure summary: Antiproliferative activity against human HL60 cells after 72 hrs by (3-(4,5-dimethylthiazol-2-yl)-2,5-diphenyltetrazolium bromide test
- Format: functional, cell-based
- Run conditions: HL-60, 72 h

# annotated cases, reported IC50 shown
Exercise: Entry COC(=O)c1oc2cccc(OC)c2c1Nc1cc(OC)c(OC)c(OC)c1 : reported IC50 = ?
Key: > 10 µM

Exercise: Entry CCOC(=O)c1oc2cccc(OC)c2c1Nc1cc(OC)c(OC)c(OC)c1 : reported IC50 = ?
Key: > 10 µM

# evaluate next
Exercise: Entry CCOC(=O)c1oc2cc(OC)ccc2c1Nc1cc(OC)c(OC)c(OC)c1 : reported IC50 = ?
Key: 0.024 µM

====

- Test system: A549
- Procedure summary: Antiproliferative activity against human A549 cells after 72 hrs by (3-(4,5-dimethylthiazol-2-yl)-2,5-diphenyltetrazolium bromide test
- Format: functional, cell-based
- Run conditions: A549, 72 h
pIC50: −log10 of the molar value.
Classify by measured pIC50: 1.0 if it is equal to or exceeds 6, 0.0 if it is smaller.

Example results:
Exercise: Please check the record CCOC(=O)c1oc2c(OCC)cccc2c1Nc1cc(OC)c(OC)c(OC)c1 and state if its pIC50 is at or above 6.
Key: 0.0

Exercise: Please check the record CCOC(=O)c1oc2cccc(OC)c2c1Nc1cc(OC)c(OC)c(OC)c1 and state if its pIC50 is at or above 6.
Key: 0.0

Exercise: Please check the record COC(=O)c1oc2ccccc2c1Nc1cc(OC)c(OC)c(OC)c1 and state if its pIC50 is at or above 6.
Key: 0.0

Now look at this entry.
Exercise: Please check the record COC(=O)c1oc2cc(OC)ccc2c1Nc1cc(OC)c(OC)c(OC)c1 and state if its pIC50 is at or above 6.
Key: 1.0

====

The entries below come with measured log10(IC50) values attached.
- Test system: Jurkat
- Procedure summary: Antiproliferative activity against human Jurkat cells after 72 hrs by (3-(4,5-dimethylthiazol-2-yl)-2,5-diphenyltetrazolium bromide test
- Type: functional, cell-based
Please interpret these as log10 of IC50 where IC50 is in nM.

# annotated cases, reported log10(IC50) shown
Exercise: Entry CCOC(=O)c1oc2c(OCC)cccc2c1Nc1cc(OC)c(OC)c(OC)c1 : reported log10(IC50) = ?
Key: 3.96

Exercise: Entry CCOc1cccc2c(Nc3cc(OC)c(OC)c(OC)c3)c(C(=O)OC)oc12 : reported log10(IC50) = ?
Key: 3.57

Exercise: Entry COC(=O)c1oc2c(OC)cccc2c1Nc1cc(OC)c(OC)c(OC)c1 : reported log10(IC50) = ?
Key: 1.48

Exercise: Entry COC(=O)c1oc2ccc(OC)cc2c1Nc1cc(OC)c(OC)c(OC)c1 : reported log10(IC50) = ?
Key: 2.32

Exercise: Entry CCOC(=O)c1oc2ccccc2c1Nc1cc(OC)c(OC)c(OC)c1 : reported log10(IC50) = ?
Key: 2.26

# evaluate next
Exercise: Entry CCOC(=O)c1oc2ccc(OC)cc2c1Nc1cc(OC)c(OC)c(OC)c1 : reported log10(IC50) = ?
Key: 3.36

====

- Test system: A549
- Procedure summary: Antiproliferative activity against human A549 cells after 72 hrs by (3-(4,5-dimethylthiazol-2-yl)-2,5-diphenyltetrazolium bromide test
- Assay type: functional, cell-based
- Run conditions: A549, 72 h
The entries below come with measured IC50 values attached.
// return numeric value only (unit: nM, not printed)

# annotated cases, reported IC50 shown
Exercise: Entry COC(=O)c1oc2c(OC)cccc2c1Nc1cc(OC)c(OC)c(OC)c1 : reported IC50 = ?
Key: 1270

Exercise: Entry CCOC(=O)c1oc2c(OC)cccc2c1Nc1cc(OC)c(OC)c(OC)c1 : reported IC50 = ?
Key: 1100

Exercise: Entry CCOc1cccc2c(Nc3cc(OC)c(OC)c(OC)c3)c(C(=O)OC)oc12 : reported IC50 = ?
Key: 8900

Exercise: Entry COC(=O)c1oc2ccc(OC)cc2c1Nc1cc(OC)c(OC)c(OC)c1 : reported IC50 = ?
Key: 1570

Exercise: Entry CCOC(=O)c1oc2ccccc2c1Nc1cc(OC)c(OC)c(OC)c1 : reported IC50 = ?
Key: 5470

Exercise: Entry CCOC(=O)c1oc2cc(OC)ccc2c1Nc1cc(OC)c(OC)c(OC)c1 : reported IC50 = ?
Key: 36

# evaluate next
Exercise: Entry CCOC(=O)c1oc2ccc(OC)cc2c1Nc1cc(OC)c(OC)c(OC)c1 : reported IC50 = ?
Key: 8900
